target: T1, DENV-1 nonstructural protein 1 (NS1), recombinant (Dengue virus 1, strain Nauru/West …, UniProt P17763); experiment: SPR; settings: both partners purified
T1 construct: also called DENV-1 NS1; NS1 from DENV-1; source: bought: Native Antigen Company (recombinant)
Assign labels as follows, please: satisfied for Kd below 2 nM; not satisfied for Kd equal to or exceeding 2 nM.

Binder	Group Label
sdAb DD7 (VHH, source: E. coli Turner (DE3), pET22b, periplasmic, purified (Ni-Sepharose, SEC)) VHH: EVQLVQSGGGSVQAGGSLRLSCAHSSITVPDYTIGWFRRAPGKGGEEVSLISMHGGRSWYAGSVKGRFAISRDSVKNTVYLQMNNLKPEDTDIYYCGGTTFGLAAAPNEYDSWGQGSQVTVSS	satisfied
sdAb DD9 (VHH, source: E. coli Turner (DE3), pET22b, periplasmic, purified (Ni-Sepharose, SEC)) VHH: EVQLQASGGGLVQAGGSLRVSCAASGIAFTNYALAWYRQPPGKQREWVATVGVLGGTKYADSVKGRFAISRDNAKNTVILQMNSLKPVDTAVYFCAAVEWSNGRYYWDSWGQGTQVTVSA	not satisfied
sdAb DD1 (VHH, source: E. coli Turner (DE3), pET22b, periplasmic, purified (Ni-Sepharose, SEC)) VHH: EVQLQASGGGLVQAGGSLRVSCAATGIAFASYAVAWYRQAPGKQREWVATVGGLGGTKYVDSVKGRFTISRDNAKNAVTLQMNSLKPEDTAVYYCAAVEWDDGHYYWDTWGQGTRVTVSA	not satisfied
sdAb DC7 (VHH, source: E. coli Turner (DE3), pET22b, periplasmic, purified (Ni-Sepharose, SEC)) VHH: EVQLQASGGGSVQAGGSLRLSCAHSSITVPDYTIGWYRRAPGKGGEEVSLISMHGGRTWYAGSVKGRFAISRDSVKNTVYLQMNNLKPEDTDIYYCGGTTFGLAAAPNEYDSWGQGSQVTVSS	satisfied

Query string: Determine whether this binder shows Kd lower than 2 nM (ties excluded): sdAb DD5 (VHH, source: E. coli Turner (DE3), pET22b, periplasmic, purified (Ni-Sepharose, SEC)) VHH: EVQLQASGGGLVQAGGSLRLSCAASGRAFSSETMGWFRQAPGKEREFVAAIWRIGGSTYNTDYADSVKGRFAISADRAKNTVDLQMNTLKPEDTAVYYCAGKMRGRSVNLYDYDYWGQGTQVTVSS
Result string: not satisfied
